Where these numbers come from: paper PMC7470945

- targetOrSystem: T1, SBDSco E156R (Streptomyces coelicolor, UniProt Q9L0M9 90-250, E156R)
- T1 sequence: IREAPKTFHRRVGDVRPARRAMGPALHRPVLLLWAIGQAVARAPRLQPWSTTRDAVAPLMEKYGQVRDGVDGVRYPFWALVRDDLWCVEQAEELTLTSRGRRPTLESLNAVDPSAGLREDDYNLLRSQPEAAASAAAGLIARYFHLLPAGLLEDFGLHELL
- testProtocol: fluorescence polarization; FP: 20 mM Tris-HCl pH 8.0, 50 mM NaCl, 5% glycerol, 1 mM DTT, 5 nM probe, room temperature; EMSA: 20 mM Tris-HCl pH 8.0, 100 mM NaCl, 5% glycerol, room temperature, protein 4x DNA
- measurementContext: protein: recombinant; tags: 6xHis; label: 5'-FAM on one strand (FP); blunt
Task for the reader: assign each of the following binders its reported pKd.
The read-out pKd is expressed as -log10 of concentration in moles per litre.

Query string: Name the recorded pKd for PT-GATC-10 RP (hemi-PT) (dsDNA, RP phosphorothioate between G4 and A5 of strand 1) DNA 1: GATGATCCTA DNA 2: TAGGATCATC .
Result string: 6.46

Query string: Name the recorded pKd for PT-GAAC-10 RP (hemi-PT) (dsDNA, RP phosphorothioate between G4 and A5 of strand 1) DNA 1: GGCGAACGTG DNA 2: CACGTTCGCC .
Result string: 6.57
